# Assay System: Dopamine, D1 (Homo sapiens)
# Sequence (P21728 whole entry): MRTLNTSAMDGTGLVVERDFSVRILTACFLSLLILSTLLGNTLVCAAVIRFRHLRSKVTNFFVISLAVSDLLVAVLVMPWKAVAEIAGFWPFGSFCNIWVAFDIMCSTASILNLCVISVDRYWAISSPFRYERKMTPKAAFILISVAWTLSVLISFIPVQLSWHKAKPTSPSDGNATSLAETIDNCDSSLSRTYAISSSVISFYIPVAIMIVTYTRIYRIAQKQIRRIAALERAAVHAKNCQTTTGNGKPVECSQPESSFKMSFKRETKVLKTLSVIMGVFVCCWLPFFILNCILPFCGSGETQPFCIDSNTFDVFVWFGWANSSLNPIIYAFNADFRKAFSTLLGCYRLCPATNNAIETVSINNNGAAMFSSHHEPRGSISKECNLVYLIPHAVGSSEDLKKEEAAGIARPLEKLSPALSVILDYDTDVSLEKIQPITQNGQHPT
# Test: Dopamine D1 (human recombinant) binding assay
Exercise: state measured pKi for each of the molecules provided.
Worth noting: pKi values are minus log10 of concentrations stated in mol/L.

Q) Can you look up pKi on Dopamine, D1 (Homo sapiens) for `COc1ccc2c(c1)C(N1CCN(CC(C)(C)C(=O)O)CC1)=Nc1ccc(Br)cc1O2` ?
A) 6.29

Q) Tell me reported pKi for `CC(C)(CCN1CCN(C2=Nc3ccccc3Oc3ccccc32)CC1)C(=O)O` , tested with Dopamine, D1 (Homo sapiens).
A) 5.31

Q) Provide the documented pKi with Dopamine, D1 (Homo sapiens) as the system for `Cc1ccc2c(c1)C(N1CCN(CC(C)(C)C(=O)O)CC1)=Nc1cc(Br)ccc1O2`
A) 5.94

Q) Query the reported pKi for Dopamine, D1 (Homo sapiens); item: `COc1ccc2c(c1)C(N1CCN(CC(C)(C)C(=O)O)CC1)=Nc1ccccc1O2`
A) 5.28

Q) // lookup pKi | system=Dopamine, D1 (Homo sapiens) | key= `CC(C)(CCN1CCN(C2=Nc3ccccc3Oc3ccc(Cl)cc32)CC1)C(=O)O`
A) 5.14

Q) Give recorded pKi with Dopamine, D1 (Homo sapiens) for the following molecule: `CC(C)(CN1CCN(C2=Nc3ccccc3Oc3ccc(Br)cc32)CC1)C(=O)O`
A) 5.47

Q) Observed pKi on Dopamine, D1 (Homo sapiens) for `COc1ccc2c(c1)C(N1CCN(CC(C)(C)C(=O)O)CC1)=Nc1ccc(C)cc1O2` , please.
A) 5.70

Q) Missing value: pKi, Dopamine, D1 (Homo sapiens), entry `Cc1ccc2c(c1)N=C(N1CCN(CC(C)(C)C(=O)O)CC1)c1ccccc1O2` . Fill in?
A) 5.17

Q) Request: pKi, test system Dopamine, D1 (Homo sapiens), entry `COc1ccc2c(c1)C(N1CCN(CC(C)(C)C(=O)O)CC1)=Nc1cc(Br)ccc1O2`
A) 5.98

Q) Form field: pKi recorded for `Cc1ccc2c(c1)Oc1ccccc1C(N1CCN(CC(C)(C)C(=O)O)CC1)=N2` with Dopamine, D1 (Homo sapiens) (enter value)
A) 5.30

Q) Query the reported pKi for Dopamine, D1 (Homo sapiens); item: `COc1ccc2c(c1)C(N1CCN(CC(C)(C)C(=O)O)CC1)=Nc1cc(C)ccc1O2`
A) 5.30

Q) Find pKi (Dopamine, D1 (Homo sapiens)) for the entry `Cc1ccc2c(c1)N=C(N1CCN(CC(C)(C)C(=O)O)CC1)c1cc(C)ccc1O2`
A) 5.71

Q) Give the reported pKi for `O=C(O)C1(CN2CCN(C3=Nc4ccccc4Oc4ccc(Cl)cc43)CC2)CC1` (system: Dopamine, D1 (Homo sapiens)).
A) 5.76

Q) Requested read-out pKi, target or system Dopamine, D1 (Homo sapiens), entry `O=C(O)C1(CN2CCN(C3=Nc4ccccc4Oc4ccc(Br)cc43)CC2)CC1`
A) 5.95

Q) Write down the reported pKi of `Cc1ccc2c(c1)Oc1ccc(C)cc1C(N1CCN(CC(C)(C)C(=O)O)CC1)=N2` , test system: Dopamine, D1 (Homo sapiens).
A) 6.06

Q) Entry `CC(C)(CN1CCN(C2=Nc3ccccc3Oc3ccc(Cl)cc32)CC1)C(=O)O` , system Dopamine, D1 (Homo sapiens): what pKi was measured?
A) 5.34

Q) Recorded pKi for `Cc1ccc2c(c1)C(N1CCN(CC(C)(C)C(=O)O)CC1)=Nc1ccccc1O2` with Dopamine, D1 (Homo sapiens), please?
A) 5.50

Q) Given the entry `CC(C)(CN1CCN(C2=Nc3cc(Br)ccc3Oc3ccccc32)CC1)C(=O)O` , what pKi was observed with Dopamine, D1 (Homo sapiens)?
A) 5.46

Q) Kindly state the measured pKi obtained for `CC(C)(CN1CCN(C2=Nc3ccccc3Oc3ccc(O)cc32)CC1)C(=O)O` with Dopamine, D1 (Homo sapiens).
A) 6.03

* * *

# Assay System: alpha 1 receptors
# Test: Alpha 1 receptor binding assay
# Experimental Context: read-out: Ki Alpha1
pKi: −log10 of the molar value.
Measure: pKi

Q) Provide the documented pKi with alpha 1 receptors as the system for `CC(C)(CCN1CCN(C2=Nc3ccccc3Oc3ccc(Cl)cc32)CC1)C(=O)O`
A) 5.56

Q) Provide the documented pKi with alpha 1 receptors as the system for `COc1ccc2c(c1)N=C(N1CCN(CC(C)(C)C(=O)O)CC1)c1ccc(OC)cc1O2`
A) < 5.00

Q) Find pKi (alpha 1 receptors) for the entry `Cc1ccc2c(c1)N=C(N1CCN(CC(C)(C)C(=O)O)CC1)c1ccc(C)cc1O2`
A) < 5.00

Q) Any idea what pKi came out for `COc1ccc2c(c1)C(N1CCN(CC(C)(C)C(=O)O)CC1)=Nc1cc(Br)ccc1O2` on alpha 1 receptors?
A) 6.83

Q) Given the entry `CC(C)(CCN1CCN(C2=Nc3ccccc3Oc3ccccc32)CC1)C(=O)O` , what pKi was observed with alpha 1 receptors?
A) < 5.00

Q) Param readout= pKi; system= alpha 1 receptors; entry= `COc1ccc2c(c1)N=C(N1CCN(CC(C)(C)C(=O)O)CC1)c1ccccc1O2` ; returns value.
A) < 5.00

Q) Write down the reported pKi of `COc1ccc2c(c1)Oc1ccccc1N=C2N1CCN(CC(C)(C)C(=O)O)CC1` , test system: alpha 1 receptors.
A) < 5.00

Q) Please state recorded pKi (tested on alpha 1 receptors) of `Cc1ccc2c(c1)N=C(N1CCN(CC(C)(C)C(=O)O)CC1)c1cc(C)ccc1O2`
A) 5.71

Q) Lab note: need pKi for `CC(C)(CN1CCN(C2=Nc3ccccc3Oc3ccc(Cl)cc32)CC1)C(=O)O` on alpha 1 receptors, anyone have it?
A) 5.52

Q) Missing value: pKi, alpha 1 receptors, entry `Cc1ccc2c(c1)C(N1CCN(CC(C)(C)C(=O)O)CC1)=Nc1ccccc1O2` . Fill in?
A) < 5.00

Q) Give pKi (alpha 1 receptors) of the following compound: `CC(C)(CN1CCN(C2=Nc3ccccc3Oc3ccc(O)cc32)CC1)C(=O)O`
A) < 5.00

Q) Give alpha 1 receptors pKi for `CC(C)(CN1CCN(C2=Nc3ccccc3Oc3ccc(F)cc32)CC1)C(=O)O`
A) < 5.00

Q) For the record `COc1ccc2c(c1)C(N1CCN(CC(C)(C)C(=O)O)CC1)=Nc1ccccc1O2` , what value of pKi is listed for alpha 1 receptors?
A) < 5.00

Q) Value wanted: pKi (alpha 1 receptors) of entry `COc1ccc2c(c1)C(N1CCN(CC(C)(C)C(=O)O)CC1)=Nc1ccc(C)cc1O2`
A) < 5.00

Q) Value wanted: pKi (alpha 1 receptors) of entry `CC(C)(CN1CCN(C2=Nc3ccccc3Oc3ccccc32)CC1)C(=O)NS(C)(=O)=O`
A) < 5.00

Q) What pKi appears in the records for this compound with alpha 1 receptors? `COc1ccc2c(c1)C(N1CCN(CC(C)(C)C(=O)O)CC1)=Nc1cc(C)ccc1O2`
A) 5.92

Q) Request - read-out pKi | tested on alpha 1 receptors | compound `Cc1ccc2c(c1)Oc1ccccc1C(N1CCN(CC(C)(C)C(=O)O)CC1)=N2`
A) < 5.00

* * *

Hi there, I'd appreciate the recorded Ki for every entry that follows.
# Assay System: alpha 1 receptors
# Test: Alpha 1 receptor binding assay
# Experimental Context: read-out: Ki Alpha1

Q) Give its Ki value. Item: `COc1ccc2c(c1)C(N1CCN(CC(C)(C)C(=O)O)CC1)=Nc1cc(F)ccc1O2`
A) > 10 µM

Q) Form field: reported Ki of `CC(C)(CN1CCN(C2=Nc3ccccc3Oc3ccc(Br)cc32)CC1)C(=O)O`
A) > 10 µM

Q) Endpoint output: Ki of `COc1ccc2c(c1)Oc1ccccc1C(N1CCN(CC(C)(C)C(=O)O)CC1)=N2` . Value?
A) > 10 µM

Q) Which value of Ki has been reported for `COc1ccc2c(c1)Oc1ccc(OC)cc1C(N1CCN(CC(C)(C)C(=O)O)CC1)=N2` in the records?
A) > 10 µM

Q) # get_value(readout='Ki', item= `Cc1ccc2c(c1)N=C(N1CCN(CC(C)(C)C(=O)O)CC1)c1ccccc1O2` )
A) > 10 µM

Q) Any idea what its Ki is? The compound is `COc1ccc2c(c1)N=C(N1CCN(CC(C)(C)C(=O)O)CC1)c1cc(OC)ccc1O2`
A) > 10 µM

Q) Ki for `CC(C)(CN1CCN(C2=Nc3ccccc3Oc3ccccc32)CC1)C(=O)O` ?
A) > 10 µM

Q) For the compound `COc1ccc2c(c1)C(N1CCN(CC(C)(C)C(=O)O)CC1)=Nc1ccc(Br)cc1O2` , what Ki is on record?
A) > 10 µM

Q) Look up Ki for this compound: `Cc1ccc2c(c1)C(N1CCN(CC(C)(C)C(=O)O)CC1)=Nc1cc(Br)ccc1O2`
A) 0.595 µM

Q) Given the entry `COc1ccc2c(c1)N=C(N1CCN(CC(C)(C)C(=O)O)CC1)c1cc(C)ccc1O2` , report its measured Ki.
A) > 10 µM

Q) Given the entry `O=C(O)C1(CN2CCN(C3=Nc4ccccc4Oc4ccc(Br)cc43)CC2)CC1` , report its measured Ki.
A) > 10 µM

Q) Reported Ki, compound `CC(C)(CN1CCN(C2=Nc3cc(Br)ccc3Oc3ccccc32)CC1)C(=O)O` : ____
A) 1.99 µM

Q) Which Ki reading was recorded for the compound `O=C(O)C1(CN2CCN(C3=Nc4ccccc4Oc4ccccc43)CC2)CC1` ?
A) > 10 µM
